For each entry below, report its Kd value.
molecular target: T1, monovalent hVISTA-ECD (human VISTA extracellular domain with His tail) (human, UniProt Q9H7M9 33-193); test: SPR, pH 6.0
T1 construct: analyte flowed over captured antibody; also called huVISTA-His
T1 sequence (Q9H7M9 other isoform, or with tags, fused parts or gaps limits assumed): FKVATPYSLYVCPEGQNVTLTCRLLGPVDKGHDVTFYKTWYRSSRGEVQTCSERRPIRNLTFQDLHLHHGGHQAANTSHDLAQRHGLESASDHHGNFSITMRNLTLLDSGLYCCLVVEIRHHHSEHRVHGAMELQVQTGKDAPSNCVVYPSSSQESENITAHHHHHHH
Expressed in nM, but write only the number.

Reported Kd of P1-061528 (41F11 NGS mut VK_A64G/R91A) (antibody, V domains shown, also called P1-061528-2) VH: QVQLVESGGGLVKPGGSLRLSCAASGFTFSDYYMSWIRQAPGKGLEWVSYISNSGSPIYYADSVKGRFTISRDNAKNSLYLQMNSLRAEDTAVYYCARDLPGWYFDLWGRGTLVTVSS VL: EIVLTQSPATLSLSPGERATLSCRASQSVSSYLAWYQQKPGQAPRLLIYDASNRATGIPARFSGSGSGTDFTLTISSLEPEDFAVYYCQQANNWPRTFGQGTKVEIK : 4.7

Lookup result for P1-064392 (41F11_HC_Mutant: D31E/Y50W/S55E/Y100E 41F11_LC_Mutant: V29D/A64G/Q89E/R91T) (antibody, V domains shown, Kabat positions; also called P1-064392-1) VH: QVQLVESGGGLVKPGGSLRLSCAASGFTFSEYYMSWIRQAPGKGLEWVSWISNSGEPIYYADSVKGRFTISRDNAKNSLYLQMNSLRAEDTAVYYCARDLPGWEFDLWGRGTLVTVSS VL: EIVLTQSPATLSLSPGERATLSCRASQSDSSYLAWYQQKPGQAPRLLIYDASNRATGIPARFSGSGSGTDFTLTISSLEPEDFAVYYCEQTNNWPRTFGQGTKVEIK ; measured Kd: 1.8

Data credit: patent US20220073617A1
